assay procedure: In vivo kinetics experiment (radioactivity distribution)
Set-up: species or system Wistar male rat
condition summary: rat, caudal vein, 60 min after administration
measurement kind: Radioactivity distribution Blood (% ID/g)
Answers are plain numbers, in % ID/g.

Solved cases below.
>>> numeric_value("FCCn1c(-c2cncc(Cn3ccnc3)c2)nc2cc(F)c([123I])cc21 [[^123I] 400]")
0.40
>>> numeric_value("Fc1cc2nc(-c3cncc(Cn4ccnc4)c3)n(CC[18F])c2cc1Cl [[^18F] 100]")
0.09

// each listed compound needs a value for Radioactivity distribution Blood
1. [123I]c1ccc2nc(-c3cncc(Cn4ccnn4)c3)n(C3CC3)c2c1 [[^123I] 603]
2. Fc1cc2nc(-c3cncc(Cn4ccnc4)c3)n(CCC[18F])c2cc1Cl [[^18F] 500]
3. [123I]c1ccc2nc(-c3cncc(Cn4ccnc4)c3)n(C3CC3)c2c1 [[^123I] 602]
4. Fc1cc2nc(-c3cncc(Cn4ccnc4)c3)n(CC[18F])c2cc1Br [[^18F] 200]

[out]
0.06
0.10
0.40
0.13

These measurements were taken from patent US10358434B2.
